Give normalized growth for every item shown.
- measurement_description: chemical genetic growth profiling, strain panel (AID 1159580);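 also: tested at 20 µM; growth read once vehicle control cultures reached saturation at 30 °C; 1 = growth at the plate median or of vehicle wells; lower values mean less growth of the strain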
- assay_setup: S. cerevisiae deletion strains, growth OD, locus YLR258W, strain gsy2, active compounds read low
About 2,000 (36%) of roughly 5,500 compounds were called active. Not shown: some 18% with an inconclusive outcome. The list shows a part of the results. Where a SMILES comes first, the peptide text is derived from it. Side-chain parts run from the residue outwards. [ ]: non-standard residue; d: D form. The star is where a group is joined. X1 = CCC(C)C(N)C1=NC(C(=O)*)CS1; Orn = NCCC[CH](N)C(=O)O
Answers are plain numbers.

{"columns": ["molecule", "observed_result"],
 "data": [
  ["COc1cc(-c2oc3cc(O)ccc3c(=O)c2O)ccc1O", 0.935]
]}

// for each molecule in input: emit normalized growth
1. COc1ccc2c(c1)[C@]13CCCC[C@H]1[C@H](C2)N(C)CC3
2. CCCCCCCCCCCCCCCCCCOCC(O)CO (stereo not drawn)
3. COc1c2occc2c(OC)c2c(=O)cc(C)oc12
4. CC[C@@H](CO)NC(=O)[C@@H]1C=C2c3cccc4[nH]cc(c34)C[C@H]2N(C)C1

1. 0.997
2. 0.975
3. 0.943
4. 1

// for each molecule in input: emit normalized growth
1. CCC(C)C(N)C1=NC(C(=O)NC(CC(C)C)C(=O)NC(CCC(=O)O)C(=O)NC(C(=O)NCCCCC2NC(=O)C(CC(N)=O)NC(=O)C(CC(=O)O)NC(=O)C(Cc3cnc[nH]3)NC(=O)C(Cc3ccccc3)NC(=O)C(C(C)CC)NC(=O)C(CCCN)NC2=O)C(C)CC)CS1 (stereo not drawn) (cyclo(DNK([Ile-Glu-Leu-X1])[Orn]IFH); configuration not given here)
2. CN1C(=O)CCS(=O)(=O)C1c1ccc(Cl)cc1 (stereo not drawn)
3. O=c1c(O)c(-c2ccc(O)c(O)c2)oc2cc(O)ccc12

1. 0.993
2. 0.988
3. 1

----------
- measurement_description: chemical genetic growth profiling, strain panel (AID 1159580);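 also: tested at 20 µM; growth read once vehicle control cultures reached saturation at 30 °C; 1 = growth at the plate median or of vehicle wells; lower values mean less growth of the strain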
- assay_setup: S. cerevisiae deletion strains, growth OD, locus YOR231W, strain MKK1, active compounds read low
The campaign covered roughly 5,500 compounds. About 2,000 (36%) were called active. Roughly 18% stayed inconclusive and do not appear here. The list shows a part of the results.
Give normalized growth for every item shown.
One number for each entry.

{"columns": ["smiles_record", "readout_kind", "observed_result"],
 "data": [
  ["O=C(c1cc2c(s1)-c1ccccc1CC2)N1CCN(Cc2ccccc2)CC1", "normalized growth", 0.981],
  ["COc1ccc(-c2oc3ccccc3c(=O)c2O)cc1OC", "normalized growth", 0.996],
  ["CC(=O)NO", "normalized growth", 0.992]
]}

Shift focus to the following entry.
For reference, reported normalized growth for Cc1onc(-c2ccccc2Cl)c1C(=O)N[C@@H]1C(=O)N2[C@@H]1SC(C)(C)[C@@H]2C(=O)O stands at 1.01

----------
Give normalized growth for every item shown.
- measurement_description: chemical genetic growth profiling, strain panel (AID 1159580);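 also: tested at 20 µM; growth read once vehicle control cultures reached saturation at 30 °C; 1 = growth at the plate median or of vehicle wells; lower values mean less growth of the strain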
- assay_setup: S. cerevisiae deletion strains, growth OD, locus YGL078C, strain dbp3, active compounds read low
The campaign covered roughly 5,500 compounds. About 2,000 (36%) were called active. Inconclusive results (about 18%) are left out. This is one part of the list.
One number for each entry.

{"columns": ["compound", "normalized growth"],
 "data": [
  ["COc1ccc(C2C(=O)c3ccccc3C2=O)cc1", 0.99],
  ["OCCN1CCN(CCCN2c3ccccc3Sc3ccc(C(F)(F)F)cc32)CC1", 0.986],
  ["CC(=O)N[C@@H](Cc1c[nH]c2ccccc12)C(=O)O", 1.01]
]}

// for each compound in input: emit normalized growth
1. CC(=O)O[C@H]1CC[C@]2(C)C3CC(=O)[C@]4(C)C(C(C)=O)=CCC4C3CC[C@H]2C1 (stereo partly specified)
2. CC(=O)Oc1cccc2c1C(=O)c1c(OC(C)=O)cc(C(=O)O)cc1C2=O
3. O=C(CCc1ccc(O)cc1)c1c(O)cc(O)cc1O[C@@H]1O[C@H](CO)[C@@H](O)[C@H](O)[C@H]1O

1.01
1
0.985

// for each compound in input: emit normalized growth
1. CCNc1nc(Cl)nc(NCC)n1
2. CO[C@H]1C[C@H](O[C@H]2[C@H](C)[C@@H](OC3O[C@H](C)C[C@H](N(C)C)[C@H]3OC(C)=O)[C@@H](C)C[C@]3(CO3)C(=O)[C@H](C)[C@@H](OC(C)=O)[C@@H](C)[C@@H](C)OC(=O)[C@@H]2C)O[C@@H](C)[C@@H]1OC(C)=O (stereo partly specified)
3. CC(=O)Oc1cccc(C(=O)O)c1OC(C)=O
4. CC(=O)O[C@@H]1CC[C@]2(C)C3CC[C@]4(C)C(=O)CCC4C3CC[C@H]2C1 (stereo partly specified)
5. CC1=C(O)C(=O)C=C2C1=CC=C1[C@@]2(C)CC[C@@]2(C)[C@@H]3C[C@](C)(C(=O)O)CC[C@]3(C)CC[C@]12C

1: 1; 2: 0.984; 3: 1.01; 4: 0.948; 5: 0.905

----------
- measurement_description: chemical genetic growth profiling, strain panel (AID 1159580);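 also: tested at 20 µM; growth read once vehicle control cultures reached saturation at 30 °C; 1 = growth at the plate median or of vehicle wells; lower values mean less growth of the strain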
- assay_setup: S. cerevisiae deletion strains, growth OD, locus YGR078C, strain PAC10
The campaign covered roughly 5,500 compounds. About 2,000 (36%) were called active. Another 18% or so got no clear call; they are omitted. No stated cut-off is given here; in the data, active means normalized growth mostly below about 0.91 (no sharp cut-off); inconclusive means no clear call, values can overlap the other calls; inactive means mostly above about 0.92. The list shows a part of the results. Where a SMILES comes first, the peptide text is derived from it. Bridges are numbered along the chain shown (N, C = ends). [ ]: non-standard residue; d: D form. The star is where a group is joined. Octanoyl(6-Me) = CCC(C)CCCCC(=O)*; Dab = NCC[CH](N)C(=O)O
Give your call using only these classes: active, inactive

Please review the following examples before continuing.
{"columns": ["molecule", "category"],
 "data": [
  ["CC(=O)C1C(=O)CC(c2ccc(Cl)cc2)CC1=O (stereo unspecified)", "active"],
  ["C[C@]12CCC(=O)C=C1CCC1C2[C@@H](O)C[C@@]2(C)C1CC[C@]2(O)C(=O)COC(=O)CCC(=O)O (stereo partly specified)", "inactive"]
]}

I'd appreciate the recorded outcome for CC(C)S(=O)(=O)c1csc(C(N)=O)c1Cl from this test.
inactive

I'd appreciate the recorded outcome for OCCN1CCN(CC/C=C2/c3ccccc3Sc3ccc(C(F)(F)F)cc32)CC1 from this test.
inactive

I'd appreciate the recorded outcome for CN1C(=O)CCS(=O)(=O)C1c1ccc(Cl)cc1 (stereo unspecified) from this test.
inactive

I'd appreciate the recorded outcome for CCc1cccc2c3c([nH]c12)C(CC)(CC(=O)O)OCC3 (stereo unspecified) from this test.
inactive

I'd appreciate the recorded outcome for CC1=CC2C(C(C)C)CCC(C)(O)C2CC1 (stereo unspecified) from this test.
inactive

I'd appreciate the recorded outcome for O=C1CCCN1c1ccc(Cl)c(Cl)c1 from this test.
inactive

I'd appreciate the recorded outcome for CC(NCCC(c1ccccc1)c1ccccc1)c1ccccc1 (stereo unspecified) from this test.
inactive

I'd appreciate the recorded outcome for CCC(C)CCCCC(=O)NC(CCN)C(=O)NC(C(=O)NC(CCN)C(=O)NC1CCNC(=O)C(C(C)O)NC(=O)C(CCN)NC(=O)C(CCN)NC(=O)C(CC(C)C)NC(=O)C(Cc2ccccc2)NC(=O)C(CCN)NC1=O)C(C)O (stereo unspecified) ({Octanoyl(6-Me)}-[Dab]T[Dab][Dab][Dab]FL[Dab][Dab]T; lactam 4-C; configuration not given here) from this test.
inactive

I'd appreciate the recorded outcome for NC1C[C@H]1c1ccccc1 (stereo partly specified) from this test.
inactive

I'd appreciate the recorded outcome for CC(=O)OCC(=O)[C@@]12OC3(CCCC3)O[C@@H]1CC1C3CCC4=CC(=O)C=C[C@]4(C)[C@@]3(F)[C@@H](O)C[C@@]12C (stereo partly specified) from this test.
inactive

I'd appreciate the recorded outcome for CC(C)NCC(O)c1ccc(NS(C)(=O)=O)cc1 (stereo unspecified) from this test.
inactive

I'd appreciate the recorded outcome for NCC1OC(OC2C(CO)OC(OC3C(O)C(N)CC(N)C3OC3OC(CO)C(O)CC3N)C2O)C(N)C(O)C1OC1OC(CO)C(O)C(O)C1O (stereo unspecified) from this test.
inactive

I'd appreciate the recorded outcome for CC(=O)c1cc2cc(Br)ccc2oc1=O from this test.
inactive

I'd appreciate the recorded outcome for NC(=S)c1ccc(Oc2ccc(Cl)cc2)nc1 from this test.
active

I'd appreciate the recorded outcome for C#C[C@]1(O)CC[C@H]2[C@@H]3CCC4=Cc5oncc5CC4(C)[C@H]3CCC21C (stereo partly specified) from this test.
inactive

I'd appreciate the recorded outcome for COc1cc2c(cc1OC)[C@@]13CCN4CC5=CCOC6CC(=O)N2C1[C@H]6[C@H]5C[C@H]43 (stereo partly specified) from this test.
inactive

I'd appreciate the recorded outcome for COc1ccc(C(=O)O)c(O)c1OC from this test.
inactive

I'd appreciate the recorded outcome for CC(C)(C)c1ccc(CSc2nc(N)cc(=O)[nH]2)cc1 from this test.
inactive

I'd appreciate the recorded outcome for O=C(O)[C@H](O)[C@@](O)(Cc1ccc(O)cc1)C(=O)O from this test.
inactive

Reference source for all entries: PubChem BioAssay AID1159580
